- assay.system: FimH-CRD (Escherichia coli, UniProt P08191)
- Construct: The first 177 amino acids of the FimH protein; thrombin tag (printed as 'fusion protein with thrombin') (cleaved yes); made in house; host or cells: bacteria (pET21b plasmid)
- Sequence (P08191 22-177): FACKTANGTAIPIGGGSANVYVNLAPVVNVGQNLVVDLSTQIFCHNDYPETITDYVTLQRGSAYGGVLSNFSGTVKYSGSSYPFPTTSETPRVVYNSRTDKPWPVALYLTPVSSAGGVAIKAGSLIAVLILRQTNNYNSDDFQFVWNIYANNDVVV
- protocol.details: Competitive binding assay by fluorescence polarization, assay 2 (compounds prepared by robotics, plates frozen and thawed)
- Procedure: The first 177 amino acids of the FimH protein were expressed as a fusion protein with thrombin in a pET21b plasmid in bacteria. This FimH protein sequence contains the carbohydrate recognition domain (CRD) and shall be termed FimH-CRD. […] A competitive binding assay by fluorescence polarization was performed using 5 nM of the Alexa 647 mannoside probe and 60 nM of the FimH-CRD. […]
Assignment: determine reported pKd for the given compounds.
Give bare numbers, as −log10 of the molar value.

compound	readout.type	measured
OC[C@H]1O[C@H](c2cccc(-c3nc4cc(F)ccc4[nH]3)c2)[C@@H](O)[C@@H](O)[C@@H]1O	pKd	7.36
OC[C@H]1O[C@H](c2cccc(/C=C\c3cc(Cl)cc(Cl)c3)c2)[C@@H](O)[C@@H](O)[C@@H]1O	pKd	7.52
CC(C)CCOc1ccc(C2O[C@H](CO)[C@@H](O)[C@H](O)[C@@H]2O)cc1 (stereo partly shown)	pKd	8.07
COC(=O)c1cccc(COc2cccc(C3O[C@H](CO)[C@@H](O)[C@H](O)[C@@H]3O)c2)c1 (stereo partly shown)	pKd	7.63
Cc1c(-c2ccc(-c3ccn(C)n3)cc2)cccc1[C@H]1O[C@H](CO)[C@@H](O)[C@H](O)[C@@H]1O	pKd	8.10

Turning to the following compound.
Briefly, pKd measured for COC(=O)c1ccc2nc(-c3cccc([C@H]4O[C@H](CO)[C@@H](O)[C@H](O)[C@@H]4O)c3)ccc2c1 : 7.74
